Molecular target: CB1 (Rattus norvegicus)
Sequence (P20272 whole entry): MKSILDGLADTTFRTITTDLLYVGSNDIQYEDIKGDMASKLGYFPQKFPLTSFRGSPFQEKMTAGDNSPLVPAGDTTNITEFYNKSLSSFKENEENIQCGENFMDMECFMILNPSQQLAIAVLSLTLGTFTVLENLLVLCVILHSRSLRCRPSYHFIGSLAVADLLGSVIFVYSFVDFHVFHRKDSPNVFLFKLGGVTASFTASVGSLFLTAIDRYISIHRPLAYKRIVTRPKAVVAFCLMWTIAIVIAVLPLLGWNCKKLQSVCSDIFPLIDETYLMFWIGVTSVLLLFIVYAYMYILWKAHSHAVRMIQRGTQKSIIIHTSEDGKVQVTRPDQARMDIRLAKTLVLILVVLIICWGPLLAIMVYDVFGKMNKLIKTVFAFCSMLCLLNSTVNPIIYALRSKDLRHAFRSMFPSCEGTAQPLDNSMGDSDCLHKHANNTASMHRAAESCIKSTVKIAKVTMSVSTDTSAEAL
Test: cyclic adenosine monophosphate (cAMP) assay at CB1
Type: cell-based
Conditions: read-out: % Efficacy
Binary label based on Emax with cut-off 80%: below gives label 1, not below gives label 0.

C=C(C)[C@H]1CCC(CO)=C[C@@H]1c1c(O)cc(C(C)(C)CCCCN2CCOCC2)cc1O    label 0
CCCCCCC1(c2cc(O)c([C@H]3C=C(C)[C@H]4C[C@@H]3C4(C)C)c(O)c2)SCCS1    label 1
C=C(C)[C@H]1CCC(CO)=C[C@@H]1c1c(O)cc(C2(CCCCCC#N)CCC2)cc1O    label 0

# TODO verify Emax < 80% strictly for this compound: C=C(C)[C@H]1CCC(CO)=C[C@@H]1c1c(O)cc(C2(CCCCCC)CC2)cc1O label 1

# TODO verify Emax < 80% strictly for this compound: C=C(C)[C@H]1CCC(CO)=C[C@@H]1c1c(O)cc(C2(CCCCCC)SCCS2)cc1O label 0
